target: T1, CD8α-Fc fusion protein (human); experiment: ELISA on coated CD8α-Fc, anti-his-HRP, four-parameter fit
T1 construct: also called CD8 α-Fc protein; CD8α-Fc tag antigen
T1 sequence (chain, as listed by the source): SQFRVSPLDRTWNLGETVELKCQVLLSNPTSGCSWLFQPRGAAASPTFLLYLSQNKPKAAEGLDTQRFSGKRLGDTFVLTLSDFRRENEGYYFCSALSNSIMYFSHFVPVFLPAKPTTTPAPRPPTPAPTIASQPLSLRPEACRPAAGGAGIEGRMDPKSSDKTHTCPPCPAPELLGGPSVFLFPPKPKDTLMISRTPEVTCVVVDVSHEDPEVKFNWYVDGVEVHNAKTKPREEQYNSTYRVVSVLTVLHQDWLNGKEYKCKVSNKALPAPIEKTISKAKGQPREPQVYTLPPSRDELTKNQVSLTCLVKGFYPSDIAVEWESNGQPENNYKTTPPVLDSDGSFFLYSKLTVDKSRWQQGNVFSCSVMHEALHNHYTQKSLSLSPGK
reported_metric: EC50 (ng/mL)
Your answer should be a plain number; it is taken to be in ng/mL.

Qu. So what's the measured EC50 for this one? C37-cHis antibody (VHH, HEK293 construct; an E. coli preparation is also described; Biotinylated for the ForteBio assay; also called C37-his; SNA006a) VHH: QLQLVESGGGLVQAGGSLRLSCAASGLTFEDYAIGWFRQAPGKEREGISCIRIYDGNTYSAESVKGRFTISSDNAKNQVYLQINTLKPEDTAVYYCAAGSYYSCSVYPDYDMDYWGKGTLVTVSS
Ans. 0.989

Qu. Another binder to look at: C24-cHis antibody (VHH, HEK293 construct; an E. coli preparation is also described) VHH: QVQLVESGGGLVQPGGSLRLSCAASGPIFSINTMGWYRQAPGKQRELVATMHSTGSTNYADSVKGRFTISRDNAKKTVYLQMNSLKPDDTAVYYCHVDDTGWGTVDSWGQGIQVTVSS
Ans. 4.59

Qu. Another binder to look at: S36-cHis antibody (VHH, HEK293 construct; an E. coli preparation is also described) VHH: QVQLVESGGGLVQAGGSLRLSCAASIRTFSDYAMAWFRQGPRKEREFVAAISWNGVTTFYADSVKGRFTISRDDAKNSVYLQMNSLKPEDTAVYYCAGGLNVGWGTHEREYDDWGQGTQVTVSS
Ans. 1.42

// provenance: patent US20240209089A1
